This collection of values is drawn from patent US11076594B2.

System: wheat
measurement.notes: wheat field test, crop selectivity, greenhouse spray at 4 leaf stage
Assay type: in vivo
conditions.used: 32 g/mu; sprayed at 4 leaf stage; 4 weeks after treatment
recorded.metric: Wheat (activity level, crop damage)

Param request: Wheat (activity level, crop damage) | system wheat | item Cc1nn(C)c(O)c1C(=O)c1ccc(C(F)(F)F)c(N2CCCCC2=O)c1Cl
0

---

System: corn
measurement.notes: post-emergence stage experiment, crop (Table 1)
Format: in vivo
conditions.used: post-emergence spray at 4-5 leaf stage, 250 g/ha active ingredient with 450 kg/ha water, rated after 3 weeks in greenhouse
recorded.metric: effect on crop, Corn (level)

# return recorded effect on crop, Corn (level) for entry CCOc1c(C(=O)Oc2c(C(=O)c3ccc(C(F)(F)F)c(-n4cc(C)cn4)c3Cl)c(C3CC3)nn2C)cnn1C [Compound 092]
2 (Level 2: 5%-20% growth control rate)

# return recorded effect on crop, Corn (level) for entry CCc1nn(CC)c(O)c1C(=O)c1ccc(C(F)(F)F)c(N2CCCCCC2=O)c1Cl [Compound 122]
0

# return recorded effect on crop, Corn (level) for entry CCn1nc(C2CC2)c(C(=O)c2ccc(C(F)(F)F)c(-n3cc(C)cn3)c2Cl)c1OC(=O)c1cn(C)nc1C [Compound 145]
0
